The reported measurements were obtained from patent US20230406922A1.

Give OD450 at 10.00 nM for every item shown.
Test System: T1, murine CD19 protein (murine, UniProt P25918 19-287, limits assumed)
T1 construct: also called mouse CD19-his protein
T1 sequence (looked up): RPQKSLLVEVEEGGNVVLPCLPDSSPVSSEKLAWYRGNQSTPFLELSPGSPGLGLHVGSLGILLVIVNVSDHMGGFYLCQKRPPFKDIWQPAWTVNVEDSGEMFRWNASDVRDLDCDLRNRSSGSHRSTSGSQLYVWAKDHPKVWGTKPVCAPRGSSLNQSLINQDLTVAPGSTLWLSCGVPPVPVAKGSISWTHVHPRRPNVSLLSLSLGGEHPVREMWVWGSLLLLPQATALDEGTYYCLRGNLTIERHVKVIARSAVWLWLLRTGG
Protocol Summary: ELISA, murine CD19 coated
Numbers only, in OD450.

Solved cases (3 shown):
Binder: FMC63.25-mIgG1 (antibody, V domains shown, Humanized FMC63; also called FMC63-L2H5) VH: EVTLKESGPVLVKPTETLTLTCTVSGFSLSDYGVSWIRQPPGKALEWLAVIWGSETTYYNSALKSRLTISKDTSKSQVVLTMTNMDPVDTATYYCAKHYYYGGSYAMDYWGQGTTVTVSS VL: DIQMTQSPSSLSASVGDRVTITCRASQDISKYLNWYQQKPGGAVKLLIYHTSRLHSGVPSRFSGSGSGTDYTLTISSLQPEDFATYYCQQGNTLPYTFGGGTKVEIKR
OD450 at 10.00 nM, OD450: 0.08
--
Binder: FMC63.26-mIgG1 (antibody, V domains shown, Humanized FMC63; also called FMC63-L2H6) VH: EVTLKESGPVLVKPTETLTLTCTVSGFSLPDYGVSWIRQPPGKALEWLAVIWGSETTYYNSALKSRLTISKDTSKSQVVLTMTNMDPVDTATYYCAKHYYYGGSYAMDYWGQGTTVTVSS VL: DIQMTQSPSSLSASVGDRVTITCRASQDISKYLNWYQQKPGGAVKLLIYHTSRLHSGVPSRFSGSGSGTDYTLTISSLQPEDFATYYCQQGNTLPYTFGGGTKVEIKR
OD450 at 10.00 nM, OD450: 0.09
--
Binder: FMC63.27-mIgG1 (antibody, V domains shown, Humanized FMC63; also called FMC63-L2H7) VH: EVTLKESGPVLVKPTETLTLTCTVSGVSLPDYGVSWIRQPPGKALEWLAVIWGSETTYYNSALKSRLTISKDNSKSQVVLTMTNMDPVDTATYYCAKHYYYGGSYAMDYWGQGTTVTVSS VL: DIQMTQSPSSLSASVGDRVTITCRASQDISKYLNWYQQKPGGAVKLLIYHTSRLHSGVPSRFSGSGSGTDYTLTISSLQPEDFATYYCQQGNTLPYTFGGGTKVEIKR
OD450 at 10.00 nM, OD450: 0.08

stdin: Provide measured OD450 at 10.00 nM value, entry: FMC63-mIgG1 (antibody, V domains shown, Parent murine antibody; also called murine antibody FMC63) VH: EVKLQESGPGLVAPSQSLSVTCTVSGVSLPDYGVSWIRQPPRKGLEWLGVIWGSETTYYNSALKSRLTIIKDNSKSQVFLKMNSLQTDDTAIYYCAKHYYYGGSYAMDYWGQGTSVTVSS VL: DIQMTQTTSSLSASLGDRVTISCRASQDISKYLNWYQQKPDGTVKLLIYHTSRLHSGVPSRFSGSGSGTDYSLTISNLEQEDIATYFCQQGNTLPYTFGGGTKLEITR
stdout: 0.07
